# TESTED TARGET: T1, scHLA-B27-mmH (engineered HLA-B*27 ectodomain in-line fusion protein) (human (HLA-B*2705, beta-2 …))
# T1 construct: also called soluble HLA-B*27 fusion protein
# EXPERIMENT SUMMARY: SPR (Biacore), mAb captured, 25 C, HBST pH 7.4

BINDER	t1/2
H4H2524P (antibody, V domains shown) VH: QVQLQESGPGLVKPSQTLSLTCTVSGGSISSDGYYWSWIRQHPGKGLEWIGYIYYSGNTYYNPSLKSRVTISVDTSKNHFSLKLSSVTAADTAVYYCTRDPRGITGTHYFDYWGQGTLVTVSS VL: EIVLTQSPGTLSLSPGERATLSCRTSQSVSSSYLAWYQQKPGQAPRLLIYGASSRATGIPDRFSGSGSGTDFTLTISRLEPEDFAVYYCQQFGTSLFTFGPGTKVDIK	2 min
H4H2530S (antibody, V domains shown) VH: EVQLVESGPGLVKPSQTLSLTCTVSGGSINSGGSYWSWIRQHPGKGLEWIGYIYSSGNTYYKPSLKSRVTISLDTSKNQFSLKMSSVTAADTAIYYCARDPRGITGTHYFDYWGQGTTVTVSS VL: EIVLTQSPGTLSLSPGERATLSCRTSQSISNKYLAWYQQKPGQAPRLLIYGASTRATGIPDRFSGSGSGTDFTLTISRLEPEDFAVYYCQQFGTSLFTFGPGTKVEIK	16 min
H4H2526P (antibody, V domains shown) VH: QVQLVESGGGVVQPGRSLRLSCAASGFTFSRFGMDWVRQAPGKGLEWVAVISYDGKNKLYADSVKGRFTISRDNSKNTLYMQMNSLRAEDTAVYYCAKEGDNWNFVGDSWGQGTLVTVSS VL: DIQMTQSPSSVSASVGDRVTITCRASQDISARLAWYQQKPGKAPKLLIYAASSLQSGVPSRFSGSGSGTDFTLTISSLEPEDFATYYCQQADSFPYTLGQGTKLEIK	96 min
